- test_description: in vitro
- test_context: human, Caco-2, Caco-2 permeability P (B-A), basolateral to apical
endpoint: Papp B→A (×10⁻⁶ cm/s)
// units = ×10⁻⁶ cm/s; emit number, no label

Quick one: Papp B→A of `CO[C@H](c1ccccc1)[C@@H]1NC(=O)[C@H](C)NC(=O)[C@H](C[C@@H](C)CO)N(C)C(=O)[C@H](Cc2cn(Cc3cn(CCOCCn4cc(Cn5cc(C[C@@H]6NC(=O)[C@H](C(C)C)NC(=O)[C@H](CC(C)C)N(C)C(=O)[C@H](C(C)C)NC(=O)[C@H]([C@H](OC)c7ccccc7)NC(=O)[C@H](C)NC(=O)[C@H](C[C@@H](C)CO)N(C)C6=O)c6ccccc65)nn4)nn3)c3ccccc23)NC(=O)[C@H](C(C)C)NC(=O)[C@H](CC(C)C)N(C)C(=O)[C@H](C(C)C)NC1=O` ?
2.4

The origin of these recorded values is paper PMC10914731.
